Data provenance: patent US20110251247A1

Tested on: Horn Fly (Haematobia irritans)
measurement_protocol: Horn Fly (Haematobia irritans) Feed Assay
Type: in vivo
run_parameters: horn flies fed on treated citrated bovine blood; knockdown and mortality at approximately 2 and 24 hours
measurement_name: LD^90 (lethal dose 90%) (µg/mL)
Number only, in µg/mL; omit the unit.

Query block: For CC(=O)NCc1cc(C2=NOC(c3cc(Cl)c(Cl)c(Cl)c3)(C(F)(F)F)C2)ccc1F (stereo not shown) [Example 3] , what is its reported LD^90 (lethal dose 90%)?
Result block: 10

Query block: Give its LD^90 (lethal dose 90%) value. Item: CC(C)C(=O)NCc1cc(C2=NOC(c3cc(Cl)c(Cl)c(Cl)c3)(C(F)(F)F)C2)ccc1F (stereo not shown) [Example 4]
Result block: 1

Query block: For the molecule shown here, O=C(NCc1cc(C2=NOC(c3cc(Cl)c(Cl)c(Cl)c3)(C(F)(F)F)C2)ccc1F)C1CC1 (stereo not shown) [Example 5] , give the reported LD^90 (lethal dose 90%).
Result block: 1

Query block: Query: LD^90 (lethal dose 90%); subject: O=C(NCc1cc(C2=NOC(c3cc(Cl)c(Cl)c(Cl)c3)(C(F)(F)F)C2)ccc1F)C1CCC1 (stereo not shown) [Example 6]
Result block: 3

Query block: Entry CC(C)CC(=O)NCc1cc(C2=NOC(c3cc(Cl)c(Cl)c(Cl)c3)(C(F)(F)F)C2)ccc1F (stereo not shown) [Example 9] has what LD^90 (lethal dose 90%)?
Result block: 3

Query block: Please look up its LD^90 (lethal dose 90%): CC(=O)NCc1cc(C2=NOC(c3cc(Cl)c(F)c(Cl)c3)(C(F)(F)F)C2)ccc1F (stereo not shown) [Example 11]
Result block: 3

Query block: Give its LD^90 (lethal dose 90%) value. Item: O=C(CC1CC1)NCc1cc(C2=NOC(c3cc(Cl)c(Cl)c(Cl)c3)(C(F)(F)F)C2)ccc1F (stereo not shown) [Example 8]
Result block: 3

Query block: Which LD^90 (lethal dose 90%) value belongs to CC(=O)NCc1cc(C2=NOC(c3cc(Cl)c(F)c(Cl)c3)(C(F)(F)F)C2)ccc1Cl (stereo not shown) [Example 17] ?
Result block: 1

Query block: What does the data say about its LD^90 (lethal dose 90%)? Entry: CC(=O)NCc1cc(C2=NOC(c3cc(Cl)c(Cl)c(Cl)c3)(C(F)(F)F)C2)ccc1Br (stereo not shown) [Example 18]
Result block: 1

Query block: Would you mind telling me what LD^90 (lethal dose 90%) value was observed for CCC(=O)NCc1cc(C2=NOC(c3cc(Cl)c(Cl)c(Cl)c3)(C(F)(F)F)C2)ccc1F (stereo not shown) [Example 7] ?
Result block: 1
